The following compounds have recorded IC50 on human RORgammaT-Ligand Binding Domain (LBD) (Homo sapiens (Human), UniProt P51449).
Sequence (P51449 269-508): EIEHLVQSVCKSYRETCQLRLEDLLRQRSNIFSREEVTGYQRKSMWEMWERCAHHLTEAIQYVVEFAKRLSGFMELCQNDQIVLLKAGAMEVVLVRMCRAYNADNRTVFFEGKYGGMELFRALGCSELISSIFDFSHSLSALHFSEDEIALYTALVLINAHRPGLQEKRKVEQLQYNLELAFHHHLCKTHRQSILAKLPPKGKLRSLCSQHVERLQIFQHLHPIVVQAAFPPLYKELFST

Example entries begin here.
Compound	Reported
CCn1cc(S(=O)(=O)N2C[C@H](CCC(=O)O)Oc3ccc(NC(=O)OC(C)(C)C(F)(F)F)cc32)c(OC(F)F)n1 [Example 6BC]	11.9 nM
COc1cc(S(=O)(=O)N2C[C@H](CCC(=O)O)Oc3ccc(NC(=O)O[C@@H](C)C(C)(C)C)cc32)ccc1F (single isomer, unassigned) [Example 24C]	3.8 nM
CC(C)(OC(=O)Nc1cc(F)c2c(c1)N(S(=O)(=O)c1cncc(C(F)(F)F)c1)C[C@H](CCC(=O)O)O2)C(F)(F)F [Example 29i]	9.01 nM
COc1cc(S(=O)(=O)N2C[C@H](C[C@](C)(O)C(=O)O)Oc3ccc(NC(=O)OC(C)(C)C(F)(F)F)cc32)ccc1F (single isomer, unassigned) [Example 18C]	25 nM
Cc1cccc(S(=O)(=O)N2C[C@H](C[C@@H](C)C(=O)O)Oc3ccc(NC(=O)OC(C)(C)C(F)(F)F)cc32)c1 (single isomer, unassigned) [Example 6CK]	14.5 nM

Lab note: next compound to report on.
Inquiry: System human RORgammaT-Ligand Binding Domain (LBD) (Homo sapiens (Human), UniProt P51449). Read-out IC50. Item Cc1nn(C(F)F)cc1S(=O)(=O)N1C[C@H](CC(C)(C)C(=O)O)Oc2ccc(NC(=O)OC(C)(C)C(F)(F)F)cc21 [Example 12o] . Report value.
Reply text: 14.9 nM

###

A collection of compounds and their measured IC50
Target system: human RORgammaT-Ligand Binding Domain (LBD) (Homo sapiens (Human), UniProt P51449)
Expressed in nM, but write only the number.

Compound	IC50 (nM)
COc1cc(S(=O)(=O)N2C[C@H]([C@@H]3C[C@H]3C(=O)O)Oc3ccc(NC(=O)OC(C)(C)C(F)(F)F)cc32)ccc1F (single isomer, unassigned) [Example 22J]	13.5
CC(C)(OC(=O)Nc1cc(F)c2c(c1)N(S(=O)(=O)c1ccc(F)c(Cl)c1)C[C@H](CCC(=O)O)O2)C(F)(F)F [Example 29F]	5.7

Inquiry: In one line, give reported IC50 of the entry CC(C)(OC(=O)Nc1ccc2c(c1)N(S(=O)(=O)c1ccc(F)c(C(F)(F)F)c1)C[C@H]([C@H]1C[C@@H]1C(=O)O)O2)C(F)(F)F [Example 22D] .
Reply text: 5.87

###

human RORgammaT-Ligand Binding Domain (LBD) (Homo sapiens (Human)): recorded IC50 for assorted compounds
// units = nM; emit number, no label

Inquiry: Report value: IC50, system: human RORgammaT-Ligand Binding Domain (LBD) (Homo sapiens (Human)), compound: CC(C)(OC(=O)Nc1ccc2c(c1)N(S(=O)(=O)c1cccc(S(F)(F)(F)(F)F)c1)C[C@H](CCC(=O)O)O2)C(F)(F)F
Reply text: 14.8

Inquiry: Under human RORgammaT-Ligand Binding Domain (LBD) (Homo sapiens (Human)), report IC50 for CC(C)(OC(=O)Nc1ccc2c(c1)N(S(=O)(=O)c1ccc(F)c(C(F)(F)F)c1)C[C@H]([C@@H]1C[C@H]1C(=O)O)O2)C(F)(F)F [Example 22C]
Reply text: 8.71

Inquiry: Please respond with reported IC50 (system human RORgammaT-Ligand Binding Domain (LBD) (Homo sapiens (Human))) for CC(C)(C[C@H]1CN(S(=O)(=O)c2c(Cl)nn3c2CCCC3)c2cc(NC(=O)OC(C)(C)C(F)(F)F)ccc2O1)C(=O)O [Example 12Y] .
Reply text: 14.4
